System: U-87 MG
Test: Cancer cell viability assay (MTT), U-87 MG
Format: cell-based
Settings: Homo sapiens, 72 hrs, 10% FBS media
pIC50: −log10 of the molar value.

compound: COc1ccc([N+](=O)[O-])c(S(=O)(=O)C2CCN(C(C)=O)CC2)n1 [Example 2]
system: U-87 MG
pIC50: 4.98
--
compound: COc1ccc([N+](=O)[O-])c([S+]([O-])C2CCOC2C)n1 (stereo not shown) [Example 4]
system: U-87 MG
pIC50: 5.03
--
compound: COc1ccc([N+](=O)[O-])c(S(=O)(=O)C2CCOC2C)n1 (stereo not shown) [Example 1]
system: U-87 MG
pIC50: 5.05
--
compound: COc1ccc([N+](=O)[O-])c(S(=O)(=O)C2CCOCC2)n1 [Example 3]
system: U-87 MG
pIC50: 5.21

Taken from patent US11168069B2.
